The reported measurements were obtained from patent US20200079833A1.

- Assayed target: GLP-1 receptor (GLP-1R), primary cAMP assay (human, UniProt P43220 24-463)
- Assay remarks: cell-based or functional assay
Starred links: 1 amine or outer side, 2 acyl side, 3 side chain; linkers in the order of their positions; H or OH if unused. Non-standard residues stand in square brackets, D forms with d. Groups on a side chain read outwards from the residue. Primed or numbered codes have the meaning given here. No end group written: not given here. *: point of attachment. γGlu = O=C(O)[C@H](CCC(=O)[*:2])N[*:1]; Stearoyl = CCCCCCCCCCCCCCCCCC(=O)*; Palmitoyl = CCCCCCCCCCCCCCCC(=O)*; αMeF = C[C@](N)(Cc1ccccc1)C(=O)O; αMeK = C[C@](N)(CCCCN)C(=O)O; Lauroyl = CCCCCCCCCCCC(=O)*; αMeS = C[C@](N)(CO)C(=O)O; PEG2′ = not defined here; Aib = CC(C)(N)C(=O)O
Consider the following binders; for each one, report its Primary assay EC50 (cAMP) Mean.
Answers are plain numbers, in pM.

[
  {
    "Binder": "H[Aib]EGTFTSDVSK([PEG2′-PEG2′-γGlu-Lauroyl])FLEGEAAEEFIK([PEG2′-PEG2′-γGlu-Lauroyl])FVVEGG-NH2 [SEQ ID NO: 239]",
    "Primary assay EC50 (cAMP) Mean [pM]": 7.4
  },
  {
    "Binder": "H[Aib]EGS[αMeF]TSDK([PEG2′-PEG2′-γGlu-Lauroyl])SSYLEGEAA[αMeK]EFIAWK([PEG2′-PEG2′-γGlu-Lauroyl])VEGG-NH2 [SEQ ID NO: 258]",
    "Primary assay EC50 (cAMP) Mean [pM]": 92.3
  },
  {
    "Binder": "H[Aib]EGS[αMeF]TSDV[αMeS]SYK([PEG2′-PEG2′-γGlu-Palmitoyl])EGEAA[αMeK]EFIAK([PEG2′-PEG2′-γGlu-Palmitoyl])VVEGG-NH2 [SEQ ID NO: 272]",
    "Primary assay EC50 (cAMP) Mean [pM]": 335
  }
]

Attention now shifts to the item below.
### Prompt Item under review: H[Aib]EGS[αMeF]TSDV[αMeS]SK([PEG2′-PEG2′-γGlu-Stearoyl])LEGEAA[αMeK]E[αMeF]IAK([PEG2′-PEG2′-γGlu-Stearoyl])VVEGG-NH2 [SEQ ID NO: 410] . Reported Primary assay EC50 (cAMP) Mean?
### Response 187
